test system: HEK-293T; experiment: Multiplex assay against HEK293T; format: toxicity, cell-based; conditions: human, 24 h, 10 µM, compound concentration 10 uM, replicate 1;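 as to Population Tubulin-Different-Phenotype (%): share of the cells with healthy nuclei that show this phenotype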
Consider the following molecules and their measured Population Tubulin-Different-Phenotype (%) readings.
A number alone suffices; assume %.

Sample Oc1cccc(-c2nc(N3CCOCC3)c3oc4ncccc4c3n2)c1 [PI-103] — what was its Population Tubulin-Different-Phenotype (%)?
90

Now try CN1C(=O)[C@@H](NC(=O)c2cc3ccccc3[nH]2)N=C(c2ccccc2)c2ccccc21 [DEVAZEPIDE] .
91

// next record CC[C@@]1(O)C(=O)OCc2c1cc1n(c2=O)Cc2cc3ccccc3nc2-1 [CAMPTOTHECIN]
3

Subsequent entry: CCOc1ccn(-c2ccc(F)cc2)c(=O)c1C(=O)Nc1ccc(Oc2ccnc(N)c2Cl)c(F)c1 [BMS-777607]
5

Same again, this time with C[C@@H](Oc1cc(-n2cnc3ccc(CN4CCN(C)CC4)cc32)sc1C(N)=O)c1ccccc1C(F)(F)F [GSK-461364]
45

// same read-out, input: CCOC(=O)CCNc1cc(N2CCc3ccccc3CC2)nc(-c2ccccn2)n1
47

Now consider c1ccc(-c2oc3ncnc(NC[C@@H]4CCCO4)c3c2-c2ccccc2)cc1 and answer again.
94

Next up: CC(C)c1cc(Nc2nc(N3CCC[C@H](N)C3)ncc2C(N)=O)cc(C(C)C)n1
28

How about this molecule: N#Cc1cccc(C(=O)Nc2cc(-c3ccccc3)nn2-c2ccccc2)c1
95

====

tested on: U2OS; assay: Multiplex assay against U2OS; format: toxicity, cell-based; details: human, 12 h, 1 µM, compound concentration 1 uM, replicate 2
The entries below come with measured Total Cell Count values attached.
# output: bare number, no unit

Molecule	System Under Test	Total Cell Count
Cc1c(Nc2ccc(S(=O)(=O)N3CCN(C)CC3)cc2F)nc2ccc(Nc3cnn(C4CC4)c3)cn2c1=O	U2OS	124
CC[C@H](Nc1ncnc2[nH]cnc12)c1nc2cccc(F)c2c(=O)n1-c1ccccc1 [IDELALISIB]	U2OS	132

Which Total Cell Count value belongs to Cc1ccc(S(=O)(=O)NC2c3ccccc3Oc3ccccc32)cc1 ?
49

Record: N#Cc1cccc(C(=O)Nc2cc(-c3ccccc3)nn2-c2ccccc2)c1
59

Ok, now CC(C)C[C@H](NC(=O)[C@H](Cc1ccccc1)NC(=O)CNC(=O)CNC(=O)[C@@H](N)Cc1ccc(O)cc1)C(=O)O [ENKEPHALIN]
70

Input CN(c1cc(C(F)(F)F)nc(OCCC(=O)O)n1)c1cccc2c1CCC2
65

Query CCCCCNC(=N)N/N=C/c1c[nH]c2ccc(OC)cc12.O=C(O)/C=C\C(=O)O [TEGASEROD MALEATE] next
74

Repeat with CC(C)c1cc(Nc2nc(N3CCC[C@H](N)C3)ncc2C(N)=O)cc(C(C)C)n1
82

Now consider Cl.Cn1c2c(c3ccc(Cl)c(Cl)c31)C(C#N)C1(CCNCC1)NC2=O (centres undefined) .
159

====

system: HEK-293T; experiment: Multiplex assay against HEK293T; type: toxicity, cell-based; conditions: human, 24 h, 1 µM, compound concentration 1 uM, replicate 1
Population Mitochondria Different-Phenotype (%) by entry:
Give the number; % is assumed, so skip it.

Requested field: Population Mitochondria Different-Phenotype (%). Item: Cc1c(Nc2ccc(S(=O)(=O)N3CCN(C)CC3)cc2F)nc2ccc(-c3cnn(C4CC4)c3)cn2c1=O
4

And the next one, CC[C@@H]1C(=O)N(C)c2cnc(Nc3ccc(C(=O)NC4CCN(C)CC4)cc3OC)nc2N1C1CCCC1 [BI-2536] ?
12

What about this molecule? Cl.Cn1c2c(c3ccc(Cl)c(Cl)c31)C(C#N)C1(CCNCC1)NC2=O (stereo not drawn)
5

Same lookup for CCCCCNC(=N)N/N=C/c1c[nH]c2ccc(OC)cc12.O=C(O)/C=C\C(=O)O [TEGASEROD MALEATE] , please.
83

Same question, CCOc1ccn(-c2ccc(F)cc2)c(=O)c1C(=O)Nc1ccc(Oc2ccnc(N)c2Cl)c(F)c1 [BMS-777607] this time
12

Hey, just so you know, these numbers are from ChEMBL document CHEMBL4689842.
